B1: library; numbered along this chain (parent)
chain: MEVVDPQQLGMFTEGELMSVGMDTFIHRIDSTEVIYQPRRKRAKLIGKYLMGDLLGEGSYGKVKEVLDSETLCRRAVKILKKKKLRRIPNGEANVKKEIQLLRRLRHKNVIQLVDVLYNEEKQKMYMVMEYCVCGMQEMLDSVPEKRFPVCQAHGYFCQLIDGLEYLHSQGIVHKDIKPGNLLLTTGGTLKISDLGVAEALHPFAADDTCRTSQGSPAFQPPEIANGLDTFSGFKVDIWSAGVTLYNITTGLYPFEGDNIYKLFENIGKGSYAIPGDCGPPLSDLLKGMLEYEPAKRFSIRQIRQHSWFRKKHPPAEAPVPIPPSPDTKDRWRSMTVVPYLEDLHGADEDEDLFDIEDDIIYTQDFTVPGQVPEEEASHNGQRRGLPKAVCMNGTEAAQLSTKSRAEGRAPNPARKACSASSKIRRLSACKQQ

# Variants of: B1
# Assay details: STK11 functional score (HeLa growth suppression), rescaled enrichment; synonymous median = 1, nonsense median = 0 (normalised score)
# Experimental context: with HeLa; variant type: missense
Consider the following variants; for each one, report its STK11 functional score.
Give bare numbers.

Some entries whose results are on file:
# Mutation, STK11 functional score
data = [
    ("I88C", 1.07),
    ("R409L", 1.02),
    ("P314L", 1.21),
    ("V338G", 1.18),
    ("D358R", 1.34),
    ("M335W", 0.367),
    ("Y292S", 1.28),
    ("E33L", 1),
]

Here are 3 variants. What values of STK11 functional score were reported for them?
1. E57A
2. Q432L
3. L353G

Given back:
1. 1.15
2. 1.55
3. 1.52
